EC50 values for the molecules below.
# assay summary: Induction of mast cell degranulation in Wistar rat isolated peritoneal cells assessed as effect on histamine release measured after 30 mins
# Type: tissue-based
# settings: Rattus norvegicus, Wistar, Mast cell, 0.5 h; read-out: EC50
Numbered stars: 1 amine (or outer) side, 2 acyl side, 3 side chain; on linkers, the order of the positions; unused ones are H or OH. Bridge positions count the residues as written; N and C are the ends. Square brackets hold non-standard residues; d marks the D form. Peptide text beside a SMILES is read from it. Trp(5-F) = N[C@@H](Cc1c[nH]c2ccc(F)cc12)C(=O)O; mXylylene = c1cc(C[*:1])cc(C[*:2])c1; αMeP = C[C@@]1(C(=O)O)CCCN1; Nva = CCC[C@H](N)C(=O)O; Mpa = O=C(O)CCS
Return type: number; implicit unit µM.

Query: EC50; subject: CCC[C@@H]1NC(=O)CCSCc2cccc(c2)CSC[C@@H](C(N)=O)NC(=O)[C@]2(C)CCCN2C(=O)[C@H](Cc2ccc(O)cc2)NC(=O)[C@H](Cc2cnc[nH]2)NC(=O)[C@H](CC(=O)O)NC(=O)[C@H](Cc2c[nH]c3ccc(F)cc23)NC(=O)[C@H](Cc2c[nH]c3ccc(F)cc23)NC(=O)CNC1=O ([Mpa][Nva]G[Trp(5-F)][Trp(5-F)]DHY[αMeP]C-NH2; linker 1-10 via mXylylene)
7

Look up EC50 for this molecule: `COc1ccc(C[C@@H]2NC(=O)[C@H](Cc3cnc[nH]3)NC(=O)[C@H](CC(=O)O)NC(=O)[C@H](Cc3c[nH]c4ccc(F)cc34)NC(=O)[C@H](Cc3c[nH]c4ccc(F)cc34)NC(=O)[C@@H](C)NC(=O)[C@H](CCCCN(C)C)NC(=O)CCSCc3cccc(c3)CSCCNC(=O)[C@]3(C)CCCN3C2=O)cc1`
10

Consider the molecule `C[C@H]1NC(=O)[C@H](CCC(=O)O)NC(=O)CCSCc2cccc(c2)CSCCNC(=O)[C@]2(C)CCCN2C(=O)[C@H](Cc2ccc(O)cc2)NC(=O)[C@H](Cc2cnc[nH]2)NC(=O)[C@H](CC(=O)O)NC(=O)[C@H](Cc2c[nH]c3ccc(F)cc23)NC(=O)[C@H](Cc2c[nH]c3ccc(F)cc23)NC1=O` and give its measured EC50.
1

Reported EC50 for C[C@@]12CCCN1C(=O)[C@H](Cc1ccc(O)cc1)NC(=O)[C@H](Cc1cnc[nH]1)NC(=O)[C@H](CC(=O)O)NC(=O)[C@H](Cc1c[nH]c3ccc(F)cc13)NC(=O)[C@H](Cc1c[nH]c3ccc(F)cc13)NC(=O)CNC(=O)[C@H](CCCCN)NC(=O)CCSCc1cccc(c1)CSC[C@@H](C(N)=O)NC2=O ([Mpa]KG[Trp(5-F)][Trp(5-F)]DHY[αMeP]C-NH2; linker 1-10 via mXylylene) : what is it?
6.67

Can you share its EC50? I mean this molecule: `C[C@H]1NC(=O)[C@H](CCCCN)NC(=O)CCSCc2cccc(c2)CSC[C@@H](C(N)=O)NC(=O)[C@]2(C)CCCN2C(=O)[C@H](Cc2ccc(O)cc2)NC(=O)[C@H]([C@@H](C)O)NC(=O)[C@@H]2C[C@H](F)CN2C(=O)[C@H](Cc2c[nH]c3ccc(F)cc23)NC(=O)[C@H](Cc2c[nH]c3ccc(F)cc23)NC1=O`
3.12

// EC50 lookup, key: `NCCCC[C@@H]1NC(=O)CCSCc2cccc(c2)CSC[C@@H](C(N)=O)NC(=O)[C@@H]2CCCN2C(=O)[C@H](Cc2ccc(O)cc2)NC(=O)[C@H](Cc2c[nH]cn2)NC(=O)[C@H](CC(=O)O)NC(=O)[C@H](Cc2c[nH]c3ccc(F)cc23)NC(=O)[C@H](Cc2c[nH]c3ccc(F)cc23)NC(=O)CNC1=O`
6.67
